Data origin: the Immune Epitope Database (IEDB)

Measured On: HLA-A*03:01
Method Description: IEDB peptide-MHC binding, purified MHC/direct/fluorescence; filed as Kd, often an IC50 or EC50 that approximates it; bounds were set here for any values at or beyond the usual limits of such assays
Measurement Context: source organism: Escherichia coli
Record form. Attribute: pKd. Fill in for each entry.
Numbers only, as −log10 of the molar value.

{"Residue Codes": "TTFPVNGGY", "Measured On": "HLA-A*03:01", "pKd": 5.84}

// switching to the query sequence
Q: Answer with the recorded pKd of `RMYGISPWT` only.
Ans: 6.10

###

Measured On: HLA-A*03:01
Method Description: IEDB peptide-MHC binding, purified MHC/direct/fluorescence; filed as Kd, often an IC50 or EC50 that approximates it; bounds were set here for any values at or beyond the usual limits of such assays
Measurement Context: source organism: Homo sapiens
Record form. Attribute: Kd. Fill in for each entry.
Numbers only, in µM.

Go through the list and state Kd for each entry.
1. KSDPIMLLK
2. CSDDGFWSK

Ans:
0.381
11

###

Measured On: HLA-B*15:03
Method Description: IEDB peptide-MHC binding, purified MHC/competitive/radioactivity; filed as Kd, often an IC50 or EC50 that approximates it; bounds were set here for any values at or beyond the usual limits of such assays
Measurement Context: source organism: Vaccinia virus WR
Assay Endpoint: pKd
Answers are plain numbers, as −log10 of the molar value.

Some solved cases for reference:
{"Residue Codes": "ELYMYFNHV", "pKd": 6.38}
{"Residue Codes": "KMSFLPIIF", "pKd": 10.10}
{"Residue Codes": "KKVYTFFKF", "pKd": 8.44}

// switching to the query sequence
Q: Answer with the recorded pKd of `ASTNLGSSF` only.
Ans: 6.79

###

Measured On: HLA-B*45:06
Method Description: IEDB peptide-MHC binding, purified MHC/competitive/fluorescence; filed as Kd, often an IC50 or EC50 that approximates it; bounds were set here for any values at or beyond the usual limits of such assays
Measurement Context: source organism: Yellow fever virus
pKd: −log10 of the molar value.
Assay Endpoint: pKd

Q: Answer with the recorded pKd of `AEMGANLCV` only.
Ans: ≤ 5.30

###

Measured On: HLA-B*54:01
Method Description: IEDB peptide-MHC binding, purified MHC/competitive/radioactivity; filed as Kd, often an IC50 or EC50 that approximates it; bounds were set here for any values at or beyond the usual limits of such assays
Measurement Context: source organism: Triticum aestivum
Record form. Attribute: Kd. Fill in for each entry.

Some solved cases for reference:
{"Residue Codes": "QPQEQVPLV", "Measured On": "HLA-B*54:01", "Kd": "12.1 µM"}
{"Residue Codes": "VPLVQQQQFL", "Measured On": "HLA-B*54:01", "Kd": "≥ 69.9 µM"}
{"Residue Codes": "QPFPSQQPY", "Measured On": "HLA-B*54:01", "Kd": "≥ 78.1 µM"}

// switching to the query sequence
Q: Answer with the recorded Kd of `QPQQLPQFEEI` only.
Ans: ≥ 63.7 µM

###

Measured On: HLA-B*08:01
Method Description: IEDB peptide-MHC binding, purified MHC/competitive/fluorescence; filed as Kd, often an IC50 or EC50 that approximates it; bounds were set here for any values at or beyond the usual limits of such assays
Measurement Context: source organism: Human immunodeficiency virus 1
Assay Endpoint: pKd
Numbers only, as −log10 of the molar value.

Q: Answer with the recorded pKd of `EIKSLFNTI` only.
Ans: 5.79

###

Measured On: HLA-A*02:06
Method Description: IEDB peptide-MHC binding, purified MHC/competitive/fluorescence; filed as Kd, often an IC50 or EC50 that approximates it; bounds were set here for any values at or beyond the usual limits of such assays
Measurement Context: source organism: Human immunodeficiency virus 1
Assay Endpoint: Kd (nM)
Answers are plain numbers, in nM.

{"Residue Codes": "EIKSLFNTI", "Obs Value": 61.7}

// switching to the query sequence
Q: Answer with the recorded Kd of `KSLFNTIAVLY` only.
Ans: 206

###

Measured On: HLA-A*23:01
Method Description: IEDB peptide-MHC binding, purified MHC/competitive/radioactivity; filed as Kd, often an IC50 or EC50 that approximates it; bounds were set here for any values at or beyond the usual limits of such assays
Measurement Context: source organism: Variola virus
Assay Endpoint: pKd
Answers are plain numbers, as −log10 of the molar value.

Q: Answer with the recorded pKd of `RYYDGNIYDL` only.
Ans: 7.87

###

Measured On: HLA-A*11:01
Method Description: IEDB peptide-MHC binding, purified MHC/competitive/fluorescence; filed as Kd, often an IC50 or EC50 that approximates it; bounds were set here for any values at or beyond the usual limits of such assays
Measurement Context: source organism: Taterapox virus
Assay Endpoint: Kd (nM)
Answers are plain numbers, in nM.

Q: Answer with the recorded Kd of `SYVFNFHKY` only.
Ans: 2550

###

Measured On: HLA-C*14:02
Method Description: IEDB peptide-MHC binding, purified MHC/direct/fluorescence; filed as Kd, often an IC50 or EC50 that approximates it; bounds were set here for any values at or beyond the usual limits of such assays
Measurement Context: source organism: Human immunodeficiency virus 1
Assay Endpoint: pKd
Numbers only, as −log10 of the molar value.

Q: Answer with the recorded pKd of `RMYSPVSIL` only.
Ans: 6.15

###

Measured On: HLA-B*57:01
Method Description: IEDB peptide-MHC binding, purified MHC/direct/fluorescence; filed as Kd, often an IC50 or EC50 that approximates it; bounds were set here for any values at or beyond the usual limits of such assays
Measurement Context: source organism: Cryptosporidium parvum Iowa II
Record form. Attribute: Kd. Fill in for each entry.

{"Residue Codes": "DHIPIINTL", "Assay Endpoint": "Kd", "Obs Value": "≥ 20 µM"}

Q: State recorded Kd with HLA-B*57:01, entry `ILTRLALFF` , no comment.
Ans: ≥ 20 µM

###

Measured On: HLA-B*45:06
Method Description: IEDB peptide-MHC binding, purified MHC/competitive/fluorescence; filed as Kd, often an IC50 or EC50 that approximates it; bounds were set here for any values at or beyond the usual limits of such assays
Measurement Context: source organism: Homo sapiens
Assay Endpoint: Kd (nM)
One number for each entry, in nM.

Q: Answer with the recorded Kd of `YEHYFVFAA` only.
Ans: 379

###

Record form. Attribute: pKd. Fill in for each entry.
Measured On: HLA-B*51:01
Method Description: IEDB peptide-MHC binding, purified MHC/competitive/radioactivity; filed as Kd, often an IC50 or EC50 that approximates it; bounds were set here for any values at or beyond the usual limits of such assays
Measurement Context: source organism: Triticum aestivum
Answers are plain numbers, as −log10 of the molar value.

Some solved cases for reference:
{"Residue Codes": "QPQEQVPLV", "pKd": 5.32}
{"Residue Codes": "QPQQLPQFEEI", "pKd": 4.85}

// switching to the query sequence
Q: State recorded pKd with HLA-B*51:01, entry `VPLVQQQQFL` , no comment.
Ans: 5.23

###

Measured On: HLA-A*02:01
Method Description: IEDB peptide-MHC binding, purified MHC/direct/fluorescence; filed as Kd, often an IC50 or EC50 that approximates it; bounds were set here for any values at or beyond the usual limits of such assays
Measurement Context: source organism: Mammarenavirus juninense
Assay Endpoint: pKd
Numbers only, as −log10 of the molar value.

Q: Answer with the recorded pKd of `FLPKAAYAL` only.
Ans: 8.55

###

Measured On: HLA-B*15:09
Method Description: IEDB peptide-MHC binding, purified MHC/direct/fluorescence; filed as Kd, often an IC50 or EC50 that approximates it; bounds were set here for any values at or beyond the usual limits of such assays
Measurement Context: source organism: Ravn virus - Ravn, Kenya, 1987
Assay Endpoint: Kd

Q: State recorded Kd with HLA-B*15:09, entry `LFLSFCSLF` , no comment.
Ans: ≥ 20 µM

###

Measured On: HLA-B*27:05
Method Description: IEDB peptide-MHC binding, purified MHC/direct/fluorescence; filed as Kd, often an IC50 or EC50 that approximates it; bounds were set here for any values at or beyond the usual limits of such assays
Measurement Context: source organism: Rickettsia prowazekii
Assay Endpoint: Kd

Q: State recorded Kd with HLA-B*27:05, entry `NLKLYGAEF` , no comment.
Ans: ≥ 20 µM

###

Measured On: HLA-B*08:01
Method Description: IEDB peptide-MHC binding, purified MHC/direct/fluorescence; filed as Kd, often an IC50 or EC50 that approximates it; bounds were set here for any values at or beyond the usual limits of such assays
Measurement Context: source organism: Zaire ebolavirus
Record form. Attribute: pKd. Fill in for each entry.
Numbers only, as −log10 of the molar value.

{"Residue Codes": "FRYEFTAPF", "Assay Endpoint": "pKd", "Obs Value": 5.18}

// switching to the query sequence
Q: Answer with the recorded pKd of `RLAKLTEAI` only.
Ans: 4.88
